Entry source: patent US5155115A

- Tested on: 5-HT3 receptor
- procedureText: 5-HT3 receptor binding test ([^3 H] quipazine, NG108-15 cell membrane fraction)
- Design: species or system rat
- studyConditions: 10^-7 M test compound; 2 nM [^3 H] quipazine; 37° C., 60 minutes, pH 7.5
Inhibition Rate (%) (concentration) 10^-7 M values, listed per item
Provide the reading as a plain figure in %.

Record excerpt, results attached:
[[record]]
compound = "CCCCn1c(=O)c(C(=O)N[C@H]2C[C@H]3CC[C@@H](C2)N3C)c(O)c2ccsc21 [Compound 5]"
assayresult = 105

[[record]]
compound = "CN1[C@@H]2CCC[C@H]1C[C@@H](NC(=O)c1c(O)c3ccsc3[nH]c1=O)C2 [Compound 9]"
assayresult = 69

[[record]]
compound = "CN1[C@@H]2CC[C@H]1C[C@@H](NC(=O)c1c(O)c3sccc3[nH]c1=O)C2 [Compound 1]"
assayresult = 94

[[record]]
compound = "CN1[C@@H]2CC[C@H]1C[C@@H](NC(=O)c1c(O)c3ccsc3[nH]c1=O)C2 [Compound 7]"
assayresult = 71


Now consider the entry below.
According to the records, this compound CCCCn1c(=O)c(C(=O)N[C@H]2C[C@H]3CC[C@@H](C2)N3C)c(O)c2sccc21 [Compound 3] displays Inhibition Rate (%) (concentration) 10^-7 M of 101
